Cited source: patent US9446130B2

Molecular target: BTK enzyme (hBTK, full-length recombinant) (Homo sapiens (Human))
Assay: Btk enzyme activity assay, Method B: LANCE TR-FRET
Assay type: biochemical
Settings: 25 μM ATP, 60 minute compound & enzyme incubation
REPORTED ENDPOINT: pIC50
Give bare numbers, as −log10 of the molar value.

Nc1ncnc2c1c(-c1ccc(C(=O)Nc3cc(C(F)(F)F)ccn3)cc1)nn2[C@H]1CCCc2[nH]ncc21
7.22
Nc1ncnc2c1c(-c1ccc(C(=O)Nc3cc(C(F)(F)F)ccn3)cc1)nn2[C@H]1CCCc2nn(CCO)cc21
8.89

Please look at the items below and tell me pIC50 for each one, in order.
1. Cn1ncc2c1CCC[C@H]2n1nc(-c2ccc(C(=O)Nc3cc(C(F)(F)F)ccn3)cc2)c2c(N)ncnc21
2. Cn1ncc2c1CCC[C@H]2c1nc(-c2ccc(C(=O)Nc3cc(C(F)(F)F)ccn3)cc2)c2c(N)nccn12

1. 8.23
2. 6.00

###

Molecular target: BTK enzyme (hBTK, full-length recombinant) (Homo sapiens (Human), UniProt Q06187)
Sequence (Q06187 whole entry): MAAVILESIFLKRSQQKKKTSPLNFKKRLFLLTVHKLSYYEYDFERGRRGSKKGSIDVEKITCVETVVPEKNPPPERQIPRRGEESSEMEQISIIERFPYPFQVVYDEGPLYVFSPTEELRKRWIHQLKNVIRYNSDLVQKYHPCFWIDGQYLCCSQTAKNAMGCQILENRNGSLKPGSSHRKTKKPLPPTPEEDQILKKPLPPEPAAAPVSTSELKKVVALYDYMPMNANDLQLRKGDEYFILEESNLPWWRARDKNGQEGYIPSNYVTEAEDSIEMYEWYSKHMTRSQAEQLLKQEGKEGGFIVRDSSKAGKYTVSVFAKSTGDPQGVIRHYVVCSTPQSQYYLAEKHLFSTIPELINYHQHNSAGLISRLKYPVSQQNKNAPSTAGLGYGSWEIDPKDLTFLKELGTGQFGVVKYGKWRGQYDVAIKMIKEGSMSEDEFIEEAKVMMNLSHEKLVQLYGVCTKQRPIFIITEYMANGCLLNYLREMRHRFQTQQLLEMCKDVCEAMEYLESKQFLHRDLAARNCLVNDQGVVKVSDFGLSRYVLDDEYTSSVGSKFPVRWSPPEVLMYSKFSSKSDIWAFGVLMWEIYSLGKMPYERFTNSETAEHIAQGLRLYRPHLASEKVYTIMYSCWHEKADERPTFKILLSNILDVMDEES
Test: Btk enzyme activity assay, Method B: LANCE TR-FRET
Assay type: biochemical
Conditions: 25 μM ATP, 60 minute compound & enzyme incubation
REPORTED ENDPOINT: pIC50
Numbers only, as −log10 of the molar value.

As a guide, the following entries are already answered.
Nc1ncnc2c1c(-c1ccc(C(=O)Nc3cc(C(F)(F)F)ccn3)cc1)nn2[C@H]1CCCc2c1cnn2CCO
8.68
Cn1ncc2c1CCC[C@]2(O)c1nc(-c2ccc(C(=O)Nc3cc(C(F)(F)F)ccn3)cc2)c2c(N)nccn12
8.70
Nc1nccn2c([C@@H]3CCCn4c(C5CC5)nnc43)nc(-c3ccc(C(=O)Nc4cc(C(F)(F)F)ccn4)cc3)c12
7.17

Need pIC50, item CC(C)Oc1ccnc(NC(=O)c2ccc(-c3nc(N4CCn5c(nnc5C(F)(F)F)C4)n4ccnc(N)c34)cc2)c1 7.37

###

Target: BTK enzyme (hBTK, full-length recombinant) (Homo sapiens (Human), UniProt Q06187)
Assay: Btk enzyme activity assay, Method B: LANCE TR-FRET
Format: biochemical
Settings: 25 μM ATP, 60 minute compound & enzyme incubation
REPORTED ENDPOINT: log10 IC50 (log10 of the value in nM)
Units before log transform: nM; reported quantity: IC50; transform: log10.

As a guide, the following entries are already answered.
CCn1cc2c(n1)CCC[C@H]2n1nc(-c2ccc(C(=O)Nc3cc(C(F)(F)F)ccn3)cc2)c2c(N)ncnc21
1.11
Cn1cc2c(n1)CCC[C@@H]2n1nc(-c2ccc(C(=O)Nc3cc(C(F)(F)F)ccn3)cc2)c2c(N)ncnc21
1.92
Nc1ncnc2c1c(-c1ccc(C(=O)Nc3cc(C(F)(F)F)ccn3)cc1)nn2[C@@H]1CCCc2nn(CCO)cc21
-0.35
Cn1cc2c(n1)CCC[C@H]2n1nc(-c2ccc(C(=O)Nc3cc(C(F)(F)F)ccn3)cc2)c2c(N)ncnc21
0.51
Nc1ncnc2c1c(-c1ccc(C(=O)Nc3cc(C(F)(F)F)ccn3)cc1)nn2[C@@H]1CCCc2[nH]ncc21
-0.28
Cn1ncc2c1CCC[C@@]2(O)c1nc(-c2ccc(C(=O)Nc3cc(C(F)(F)F)ccn3)cc2)c2c(N)nccn12
-0.48
CCn1ncc2c1CCC[C@@H]2n1nc(-c2ccc(C(=O)Nc3cc(C(F)(F)F)ccn3)cc2)c2c(N)ncnc21
0.77
Nc1nccn2c([C@@H]3CCn4c(nnc4C(F)(F)F)C3)nc(-c3ccc(C(=O)Nc4cc(C(F)(F)F)ccn4)cc3)c12
1.04

Please look at the items below and tell me log10 IC50 for each one, in order.
1. CCn1ncc2c1CCC[C@H]2n1nc(-c2ccc(C(=O)Nc3cc(C(F)(F)F)ccn3)cc2)c2c(N)ncnc21
2. Nc1nccn2c([C@H]3CCn4c(nnc4C(F)(F)F)C3)nc(-c3ccc(C(=O)Nc4cc(C(F)(F)F)ccn4)cc3)c12
3. Nc1nccn2c([C@H]3CCCn4c(C5CC5)nnc43)nc(-c3ccc(C(=O)Nc4cc(C(F)(F)F)ccn4)cc3)c12
4. CCn1cc2c(n1)CCC[C@@H]2n1nc(-c2ccc(C(=O)Nc3cc(C(F)(F)F)ccn3)cc2)c2c(N)ncnc21
5. Nc1ncnc2c1c(-c1ccc(C(=O)Nc3cc(C(F)(F)F)ccn3)cc1)nn2[C@@H]1CCCc2c1cnn2CCO
6. Cn1ncc2c1CCC[C@@H]2c1nc(-c2ccc(C(=O)Nc3cc(C(F)(F)F)ccn3)cc2)c2c(N)nccn12

1. 0.51
2. -0.09
3. 1.75
4. 1.73
5. 0.04
6. 2.87
